molecular target: Muscarinic acetylcholine receptor M3 (Homo sapiens, UniProt P20309)
Sequence (P20309 whole entry): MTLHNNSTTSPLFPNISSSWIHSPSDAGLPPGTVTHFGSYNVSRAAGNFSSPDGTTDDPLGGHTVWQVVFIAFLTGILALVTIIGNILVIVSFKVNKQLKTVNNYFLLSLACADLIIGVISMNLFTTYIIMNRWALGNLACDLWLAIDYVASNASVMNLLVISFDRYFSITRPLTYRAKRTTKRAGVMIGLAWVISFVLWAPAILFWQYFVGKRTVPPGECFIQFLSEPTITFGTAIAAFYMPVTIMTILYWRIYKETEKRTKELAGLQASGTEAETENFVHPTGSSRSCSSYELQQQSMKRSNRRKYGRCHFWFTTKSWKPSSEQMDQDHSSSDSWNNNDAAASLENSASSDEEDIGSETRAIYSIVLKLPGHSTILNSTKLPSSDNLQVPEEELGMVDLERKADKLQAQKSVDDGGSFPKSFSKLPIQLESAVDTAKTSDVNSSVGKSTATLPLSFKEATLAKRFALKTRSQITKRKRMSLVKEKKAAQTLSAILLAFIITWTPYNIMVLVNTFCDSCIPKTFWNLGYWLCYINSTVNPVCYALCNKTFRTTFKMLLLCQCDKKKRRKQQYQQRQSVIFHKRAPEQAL
pKi: −log10 of the molar value.
measurement-type: pKi

mol=CN[C@@H]1CCN(c2ccc(-n3ncc4cc(-c5ccc(C(F)(F)F)cc5)sc4c3=O)cn2)C1 recorded_result=6.80

###

assay: Plasma concentration in Sprague-Dawley rats at 1 mg/kg after 1 day; assay type: ADME, organism-based; set-up: dose 1 mg/kg; details: rat
measurement-type: concentration at 24 h

mol=CN[C@@H]1CCN(c2ccc(-n3ncc4cc(-c5ccc(C(F)(F)F)cc5)sc4c3=O)cn2)C1 recorded_result="280 nM"

###

// reported Kp at 4 h for each item listed
test: Brain to plasma ratio in Sprague-Dawley rat at 10 mg/kg, po and 2.5 mg/kg, iv after 4 hours; type: ADME, organism-based
measurement-type: Kp at 4 h

mol=CN[C@H]1CCN(c2ccc(-n3ncc4cc(-c5ccc(Cl)cc5)ccc4c3=O)cn2)C1 recorded_result=23
mol=CN[C@@H]1CCN(c2ccc(-n3ncc4cc(-c5ccc(C(F)(F)F)cc5)sc4c3=O)cn2)C1 recorded_result=3.1

###

assay: Intrinsic clearance in human liver microsomes; format: ADME, Microsome
# CLint scaled listing for each entry below
measurement-type: CLint scaled (mL/min/kg)

mol=CN(C)[C@H]1CCN(c2ccc(-n3ncc4cc(-c5ccc(C(F)(F)F)cc5)[se]c4c3=O)cn2)C1 output_unit=mL/min/kg recorded_result=27
mol=CN[C@@H]1CCN(c2ccc(-n3ncc4cc(-c5ccc(C(F)(F)F)cc5)sc4c3=O)cn2)C1 output_unit=mL/min/kg recorded_result=8.5
mol=CN[C@@H]1CCN(c2ccc(-n3ncc4cc(-c5ccc(F)cc5)sc4c3=O)cn2)C1 output_unit=mL/min/kg recorded_result=8.2
mol=CN[C@H]1CCN(c2ccc(-n3ncc4cc(-c5ccc(OC)cc5C)ccc4c3=O)cn2)C1 output_unit=mL/min/kg recorded_result=8.8
mol=CN[C@H]1CCN(c2ccc(-n3ncc4cc(-c5ccc(C(F)(F)F)cc5)ccc4c3=O)cn2)C1 output_unit=mL/min/kg recorded_result=26

###

experiment: Brain to plasma ratio in Sprague-Dawley rat at 10 mg/kg, po and 2.5 mg/kg, iv after 1 hour; assay type: ADME, organism-based
measurement-type: Kp at 1 h

mol=CN[C@H]1CCN(c2ccc(-n3ncc4cc(-c5ccc(Cl)cc5)ccc4c3=O)cn2)C1 recorded_result=7.8
mol=CN[C@@H]1CCN(c2ccc(-n3ncc4cc(-c5ccc(C(F)(F)F)cc5)sc4c3=O)cn2)C1 recorded_result=1.4

###

Recorded measurements of concentration at 4 h, one per entry
test: Brain concentration in Sprague-Dawley rat at 10 mg/kg, po after 4 hours; format: ADME, organism-based; set-up: dose 10 mg/kg, route oral; conditions: read-out: Drug uptake
measurement-type: concentration at 4 h

mol=CN[C@@H]1CCN(c2ccc(-n3ncc4cc(-c5ccc(C(F)(F)F)cc5)sc4c3=O)cn2)C1 measurement_type="concentration at 4 h" recorded_result="1200 ng/g"
mol=CN[C@H]1CCN(c2ccc(-n3ncc4cc(-c5ccc(Cl)cc5)ccc4c3=O)cn2)C1 measurement_type="concentration at 4 h" recorded_result="1700 ng/g"
